target: GABAAR in stably expressing HEK cells (Mus musculus, UniProt P22723+P62812+P63137); experiment: cell-based
Sequence (P62812 28-455): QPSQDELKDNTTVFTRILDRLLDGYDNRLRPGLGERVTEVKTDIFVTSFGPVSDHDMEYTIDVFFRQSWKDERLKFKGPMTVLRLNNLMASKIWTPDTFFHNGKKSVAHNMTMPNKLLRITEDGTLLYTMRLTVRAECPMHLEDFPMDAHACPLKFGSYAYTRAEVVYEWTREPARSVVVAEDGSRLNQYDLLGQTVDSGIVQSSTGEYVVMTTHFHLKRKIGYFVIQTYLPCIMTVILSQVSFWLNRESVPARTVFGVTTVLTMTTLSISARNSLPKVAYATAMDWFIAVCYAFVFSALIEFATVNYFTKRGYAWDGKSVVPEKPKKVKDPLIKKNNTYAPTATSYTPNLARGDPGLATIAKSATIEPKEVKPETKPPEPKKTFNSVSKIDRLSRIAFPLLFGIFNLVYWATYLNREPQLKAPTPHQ
Sequence (P63137 25-512 limits assumed): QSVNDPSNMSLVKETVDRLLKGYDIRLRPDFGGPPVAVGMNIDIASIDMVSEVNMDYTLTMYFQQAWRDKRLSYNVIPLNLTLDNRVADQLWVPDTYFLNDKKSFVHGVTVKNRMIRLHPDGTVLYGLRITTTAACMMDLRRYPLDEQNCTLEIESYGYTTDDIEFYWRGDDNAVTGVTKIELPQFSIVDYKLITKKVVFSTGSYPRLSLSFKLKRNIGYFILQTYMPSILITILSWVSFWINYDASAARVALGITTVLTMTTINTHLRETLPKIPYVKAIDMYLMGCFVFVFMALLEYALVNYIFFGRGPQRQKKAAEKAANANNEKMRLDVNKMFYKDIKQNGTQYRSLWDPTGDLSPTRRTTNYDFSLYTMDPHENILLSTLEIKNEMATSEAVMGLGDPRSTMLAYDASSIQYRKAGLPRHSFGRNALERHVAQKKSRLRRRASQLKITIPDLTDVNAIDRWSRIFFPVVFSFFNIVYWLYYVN
Sequence (P22723 39-474): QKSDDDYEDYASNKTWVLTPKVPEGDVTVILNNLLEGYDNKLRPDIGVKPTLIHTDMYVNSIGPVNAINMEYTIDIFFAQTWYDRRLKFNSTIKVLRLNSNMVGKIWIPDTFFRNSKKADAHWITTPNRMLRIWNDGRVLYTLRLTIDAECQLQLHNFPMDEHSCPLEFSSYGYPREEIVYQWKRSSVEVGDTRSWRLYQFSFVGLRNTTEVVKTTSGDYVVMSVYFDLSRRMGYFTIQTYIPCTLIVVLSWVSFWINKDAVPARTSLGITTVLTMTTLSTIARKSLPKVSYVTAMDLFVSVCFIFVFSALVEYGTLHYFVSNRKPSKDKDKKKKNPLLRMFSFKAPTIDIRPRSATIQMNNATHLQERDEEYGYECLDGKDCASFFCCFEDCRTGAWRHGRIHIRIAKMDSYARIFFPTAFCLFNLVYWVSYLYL
pEC50: −log10 of the molar value.

molecule | pEC50
CC(C)c1cccc(C(C)C)c1O [propofol] | 4.93
